Collected # kinases inhibited >50% values appear next to each entry.
System name: 456 kinases
Assay summary: DiscoveRx scanMAX kinase profiling, number of kinases inhibited
Format: binding
Reported conditions: 0.2 μM; 456 kinases tested
// print number alone

Cc1cccc(CC(=O)N2CCc3c2ccc(-c2cn(C)c4ncnc(N)c24)c3F)n1 [GSK2656157, reference compound] = 34

Record Cc1cc(NC(=O)[C@H](O)c2cc(F)cc(F)c2)ccc1-c1cnc(N)c(C(=O)NC(C)C)c1 , field # kinases inhibited >50%: 19

Record Cc1cc(NC(=O)[C@H](O)c2cccc(F)c2)ccc1-c1cn(C)c2ncnc(N)c12 . Reported # kinases inhibited >50%: 27

The measured # kinases inhibited >50% associated with CNC(=O)c1nc(-c2ccc(NC(=O)[C@H](O)c3cc(F)cc(F)c3)cc2C)cnc1N reads 16
